Exercise: state measured zone of inhibition at 60 µg/disc for each of the compounds provided.
System: Pseudomonas aeruginosa
Test Protocol: Antimicrobial activity against Pseudomonas aeruginosa at 60 ug/disk
Format: functional
Reported Conditions: read-out: IZ
One number for each entry, in mm.

Worked examples follow.
Data point: C=C1CCOC1=O [TULIPALINE A] ; zone of inhibition at 60 µg/disc = 0

// zone of inhibition at 60 µg/disc lookup, compound = C=C(CCO)C(=O)OC[C@H]1O[C@@H](Oc2ccc(O)cc2)[C@H](O)[C@@H](O)[C@@H]1O , result: 0

# map each compound to its zone of inhibition at 60 µg/disc
1. Oc1ccc(O)cc1 [HYDROQUINONE]
2. C=C(C(=O)OC[C@H]1O[C@@H](Oc2ccc(O)cc2)[C@H](O)[C@@H](O)[C@@H]1O)[C@@H](O)CO

[reply]
[3, 1]

###

Test Protocol: Cytotoxicity against african green monkey BSC1 cells at 120 ug/disk
Format: cell-based
Reported Conditions: chlorocebus aethiops, bsc-1
Observation Type: Activity

Examples from the recorded data:
Reported Activity for C=C(CCO)C(=O)OC[C@H]1O[C@@H](Oc2ccc(O)cc2)[C@H](O)[C@@H](O)[C@@H]1O was 100%

Activity measured on Oc1ccc(O)cc1 [HYDROQUINONE] = 100%

Summary for this compound, OC[C@H]1O[C@@H](Oc2ccc(O)cc2)[C@H](O)[C@@H](O)[C@@H]1O : Activity is 50%

So, C=C(C(=O)OC[C@H]1O[C@@H](Oc2ccc(O)cc2)[C@H](O)[C@@H](O)[C@@H]1O)[C@@H](O)CO ? Its Activity was 100%

// switching to the query compound
Entry C=C1CCOC1=O — recorded Activity = 100%

###

Hi there, I'd appreciate the recorded zone of inhibition at 120 µg/disc for every entry that follows.
System: Escherichia coli
Test Protocol: Antimicrobial activity against Escherichia coli at 120 ug/disk
Type: functional
Reported Conditions: read-out: IZ
Give bare numbers, in mm.

Bench note, Escherichia coli: entry C=C(CCO)C(=O)OC[C@H]1O[C@@H](Oc2ccc(O)cc2)[C@H](O)[C@@H](O)[C@@H]1O , its zone of inhibition at 120 µg/disc = 0

Bench note, Escherichia coli: C=C1CCOC1=O [TULIPALINE A] , zone of inhibition at 120 µg/disc reads 5

Response field zone of inhibition at 120 µg/disc (Escherichia coli) for item Oc1ccc(O)cc1 [HYDROQUINONE] : 5

With Escherichia coli as the test system, OC[C@H]1O[C@@H](Oc2ccc(O)cc2)[C@H](O)[C@@H](O)[C@@H]1O [ARBUTIN] showed zone of inhibition at 120 µg/disc of 0

Field: next molecule
zone of inhibition at 120 µg/disc on Escherichia coli for C=C(C(=O)OC[C@H]1O[C@@H](Oc2ccc(O)cc2)[C@H](O)[C@@H](O)[C@@H]1O)[C@@H](O)CO is 4

###

System: Pseudomonas aeruginosa
Test Protocol: Antimicrobial activity against Pseudomonas aeruginosa at 30 ug/disk
Assay type: functional
Reported Conditions: read-out: IZ
Observation Type: zone of inhibition at 30 µg/disc (mm)
Numbers only, in mm.

Worked cases, answers included:
zone of inhibition at 30 µg/disc reported for this compound C=C(CCO)C(=O)OC[C@H]1O[C@@H](Oc2ccc(O)cc2)[C@H](O)[C@@H](O)[C@@H]1O : 0

Value of measured zone of inhibition at 30 µg/disc for the entry C=C(C(=O)OC[C@H]1O[C@@H](Oc2ccc(O)cc2)[C@H](O)[C@@H](O)[C@@H]1O)[C@@H](O)CO : 0

Sample C=C1CCOC1=O ; zone of inhibition at 30 µg/disc observed: 0

Further cases:
For record Oc1ccc(O)cc1 [HYDROQUINONE] the listed zone of inhibition at 30 µg/disc is 2

###

Can you tell me Activity for the items I'm about to list?
Test Protocol: Cytotoxicity against african green monkey BSC1 cells at 30 ug/disk
Type: cell-based
Reported Conditions: chlorocebus aethiops, bsc-1
Please give the number followed by its unit.

# count of solved cases: 3
Kindly note the recorded Activity for C=C(C(=O)OC[C@H]1O[C@@H](Oc2ccc(O)cc2)[C@H](O)[C@@H](O)[C@@H]1O)[C@@H](O)CO , which is 50%

The recorded Activity for Oc1ccc(O)cc1 [HYDROQUINONE] is 75%

Looking up C=C1CCOC1=O , I see its Activity listed as 100%

Read the next record carefully.
Form field Activity, entry C=C(CCO)C(=O)OC[C@H]1O[C@@H](Oc2ccc(O)cc2)[C@H](O)[C@@H](O)[C@@H]1O : 100%
